meta.source: patent US11873336

- Experimental System: T1, human CD22 on CD22-positive Burkitt's lymphoma cells (Daudi, Raji, Ramos) (human, UniProt P20273 20-847)
- T1 construct: whole, on cells; also called CD22+ cells; CD22 positive cells
- T1 sequence (looked up): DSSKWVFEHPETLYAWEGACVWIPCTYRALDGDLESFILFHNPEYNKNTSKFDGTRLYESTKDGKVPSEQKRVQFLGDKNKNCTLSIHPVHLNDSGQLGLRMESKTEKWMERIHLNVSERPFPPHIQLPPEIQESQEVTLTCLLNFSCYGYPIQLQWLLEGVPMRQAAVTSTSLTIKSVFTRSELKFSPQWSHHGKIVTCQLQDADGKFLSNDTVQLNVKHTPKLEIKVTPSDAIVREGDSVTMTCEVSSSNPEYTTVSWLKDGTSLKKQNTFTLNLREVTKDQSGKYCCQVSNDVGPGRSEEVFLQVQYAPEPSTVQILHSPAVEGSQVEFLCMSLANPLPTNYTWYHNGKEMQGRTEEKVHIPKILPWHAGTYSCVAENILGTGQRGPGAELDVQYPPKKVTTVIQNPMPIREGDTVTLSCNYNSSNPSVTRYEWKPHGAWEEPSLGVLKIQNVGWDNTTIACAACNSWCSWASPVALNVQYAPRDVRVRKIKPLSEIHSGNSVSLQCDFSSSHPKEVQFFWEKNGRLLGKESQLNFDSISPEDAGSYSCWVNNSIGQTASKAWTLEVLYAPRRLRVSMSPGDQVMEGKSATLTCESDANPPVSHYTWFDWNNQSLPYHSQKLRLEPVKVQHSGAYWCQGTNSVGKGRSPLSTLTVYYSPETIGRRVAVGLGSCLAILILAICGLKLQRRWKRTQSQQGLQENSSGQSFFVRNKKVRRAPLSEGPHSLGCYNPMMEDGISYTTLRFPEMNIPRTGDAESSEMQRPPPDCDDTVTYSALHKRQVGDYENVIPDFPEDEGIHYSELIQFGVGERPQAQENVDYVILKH
- Assay Procedure: cell binding, Daudi cells
Property: binding result

[[record]]
binder = "anti-CD22 heavy chain-only antibody with the VH of SEQ ID NO: 55 (antibody, V domains shown, Heavy chain-only antibody (UniAb), human IgG) VH: QLQLQESGPGLVKPSETLSLTCAVYGGSFSGYYWGWIRQPPGKGLEWIGHIYYSGATYYNPSLKNRVTISVDTSRNQFSLNLSSVTAADTAVYYCTREDSSSWRSRGQGTLVTVSS"
test_value = "binds"

[[record]]
binder = "anti-CD22 heavy chain-only antibody with the VH of SEQ ID NO: 51 (antibody, V domains shown, Heavy chain-only antibody (UniAb), human IgG) VH: QLQLQESGPGLVKPSETLSLTCTVSGGSISSSSYYWGWIRQPPGKGLEWIGSIYYSGSTYYNPSLKSRVTISVDTSKNQFSLKLSSVTAADTAVYYCTRDDSSNWRSRGQGTLVTVSS"
test_value = "binds"

[[record]]
binder = "anti-CD22 heavy chain-only antibody with the VH of SEQ ID NO: 42 (antibody, V domains shown, Heavy chain-only antibody (UniAb), human IgG) VH: QLQLQESGPGLVKPSETLSLTCTVSGDSISSGDYYWGWIRQPPGKGLEWIGSIYYSGATYYNPSLKNRVTISVDTSKNQFSLKLSSVTAADTAVYYCTRDDSSNWRSRGQGTLVTVSS"
test_value = "binds"

[[record]]
binder = "anti-CD22 heavy chain-only antibody with the VH of SEQ ID NO: 76 (antibody, V domains shown, Heavy chain-only antibody (UniAb), human IgG) VH: QLQLQESGPGLVKPSETLSLTCTVSGGSISSSSYYWGWIRQPPGKGLEWIGSVYYTGATYYNPSLKNRVTISVDTSKNQFSLKLSSVTAADTAVYYCTRDDSSNWRSRGQGTLVTVSS"
test_value = "binds"

[[record]]
binder = "anti-CD22 heavy chain-only antibody with the VH of SEQ ID NO: 50 (antibody, V domains shown, Heavy chain-only antibody (UniAb), human IgG) VH: QLQLQESGPGLVKPSETLSLTCTVSGDSISSGDYYWGWIRQPPGKGLEWIGNIYYSGATYYNPSLKNRVTISVDTSKNQFSLKLSSVTAADTAVYYCTRDDSSNWRSRGQGTLVTVSS"
test_value = "binds"

[[record]]
binder = "anti-CD22 heavy chain-only antibody with the VH of SEQ ID NO: 58 (antibody, V domains shown, Heavy chain-only antibody (UniAb), human IgG) VH: QLQLQESGPGLVKPSETLSLTCTVSGGSISSSSYYWGWIRQPPGKGLEWIGSIYYSGSTYYNPSLKSRVTISVDTSRNQFSLNLSSVTAADTAVYYCTREDSSSWRSRGQGTLVTVSS"
test_value = "binds"

[[record]]
binder = "anti-CD22 heavy chain-only antibody with the VH of SEQ ID NO: 65 (antibody, V domains shown, Heavy chain-only antibody (UniAb), human IgG) VH: QLQLQESGPGLVKPSETLSLTCTVSGGSISSSSYYWGWIRQPPGKGLEWIGSIYYSGATYYNPSLKNRVTISVDTSRNQFSLNLSSVTAADTAVYYCTREDSSSWRSRGQGTLVTVSS"
test_value = "binds"

[[record]]
binder = "anti-CD22 heavy chain-only antibody with the VH of SEQ ID NO: 39 (antibody, V domains shown, Heavy chain-only antibody (UniAb), human IgG) VH: QLQLQESGPGLVKPSETLSLTCTVSGDSISSGDYYWGWIRQPPGKGLEWIGHIYYSGATYYNPSLKNRVTISVDTSKNQFSLKLSSVTAADTAVYYCTREDSSNWRSRGQGTLVTVSS"
test_value = "binds"

